Reported Concentration is given for each of the following compounds.
assayText: Peptide hydrogel formation, vial-inverting method
Format: physicochemical
testSettings: concentration at which the state was recorded: lowest of 30, 60, 90, 120 mM that gave a gel; 120 mM for non-gelating peptides
Where a SMILES comes first, the peptide text is derived from it.
quantityName: Concentration (µM)

> print(dat)
                                   compound  numericvalue
1  CC(C)[C@H](N)C(=O)N[C@@H](Cc1ccccc1)C(=O)N[C@H](C(=O)N[C@@H](Cc1ccccc1)C(=O)O)C(C)C [VFVF] (H-VFVF-OH)         30000
2  CC(C)[C@H](NC(=O)[C@H](Cc1ccc(O)cc1)NC(=O)[C@H](CO)NC(=O)[C@@H](N)Cc1ccccc1)C(=O)O [FSYV] (H-FSYV-OH)         60000
3  CC(C)C[C@H](N)C(=O)N[C@H](C(=O)N[C@@H](Cc1c[nH]cn1)C(=O)N[C@@H](Cc1ccccc1)C(=O)O)C(C)C [LVHF] (H-LVHF-OH)         30000
4  CC(C)C[C@H](NC(=O)[C@H](C)NC(=O)[C@@H](N)CC(=O)O)C(=O)N[C@H](C(=O)O)C(C)C [DALV] (H-DALV-OH)        120000
5  CSCC[C@H](NC(=O)[C@@H]1CCCN1)C(=O)N[C@@H](Cc1ccccc1)C(=O)N[C@@H](Cc1ccc(O)cc1)C(=O)O [PMFY] (H-PMFY-OH)         60000
6  C[C@H](NC(=O)[C@@H](N)Cc1c[nH]c2ccccc12)C(=O)N[C@@H](Cc1ccccc1)C(=O)N[C@@H](Cc1ccc(O)cc1)C(=O)O [WAFY] (H-WAFY-OH)         60000
